test system: CAKI-1 renal; test: NCI tumour cell line growth inhibition, 48 h
VALUE_TYPE: TGI

# example entries with known answers
CC(=O)Oc1c2oc3ccc(Cl)cc3c(=O)c2c(O)c2ccsc12 : > 100 µM
O=c1c2ccccc2nc(-c2ccccc2)n1NC1OC(CO)C(O)C(O)C1O (stereo not drawn) : > 100 µM
O=C(O)c1ccn(-c2cccc(-n3ccc(C(=O)O)n3)n2)n1 : > 100 µM
COc1ccccc1NC(=O)CC(=O)N1N=C(C)C(N=Nc2ccc(C(=O)O)cc2)C1=O (stereo not drawn) : > 100 µM
Clc1nc(Cl)c2ncn(C/C=C/COc3cccc(OC/C=C/Cn4cnc5c(Cl)nc(Cl)nc54)c3)c2n1 : > 100 µM

Retrieve TGI on CAKI-1 renal; query C=C1C(=O)OC2/C=C(/C)C(OC(C)=O)CC(O)/C(C)=C\C(OC(=O)/C(C)=C\C)C12 (stereo not drawn)
86.4 µM

State measured TGI of the molecule COc1ccc(C(C#N)Cc2cc(OC)c(OC)c(OC)c2)cc1 (stereo not drawn) with CAKI-1 renal.
> 100 µM

Look up and report TGI, with CAKI-1 renal as system, for COc1cc(/C=C2/C[C@H]3[C@@H]4CC=C5C[C@@H](OC(C)=O)CC[C@]5(C)[C@H]4CC[C@]3(C)NC2=O)cc(OC)c1OC
> 100 µM

Write TGI of Cc1ccc(CNc2c3ccccc3nc3cc(NC(=O)CCN4CCCC4)ccc23)cc1 ; system used: CAKI-1 renal
3.91 µM

====

test system: COLO 205 colon; test: NCI tumour cell line growth inhibition, 48 h
VALUE_TYPE: TGI

Completed entries (count: 8):
COc1cc(C(C)c2cc3c(cc2OCCO)OCO3)cc(OC)c1OC (centres undefined) : 7.47 µM
O=c1cc(N2CCN(c3cc(=O)n4ccccc4n3)CC2)oc2ccccc12 : > 100 µM
CC1(C)CC(C)(C)C1=NNC(N)=O : > 100 µM
N#Cc1c(-c2ccc(Cl)cc2)c2c(n(C3OC(CO)C(O)C(O)C3O)c1=S)CCC2 (centres undefined) : 63.8 µM
CS[C@]12C(=O)C[C@@]3(C)[C@@H](CC[C@]3(O)C(=O)CO)[C@@H]1CCC1=CC(=O)CC[C@@]12C : > 100 µM
CC(=O)C1C(=O)C(=O)N(c2ccccc2C(C)C)C1=O (centres undefined) : > 100 µM
C[Si](C)(C)c1ccc(-c2sc(-c3ccc([Si](C)(C)C)s3)c3c2C[Si]2(C3)Cc3c(-c4ccc([Si](C)(C)C)s4)sc(-c4ccc([Si](C)(C)C)s4)c3C2)s1 : > 100 µM
CC(C)c1cccc2sc(NC(=O)C(=O)C(C#N)c3cccc4ccccc34)nc12 (centres undefined) : > 100 µM

Return TGI (reported value) for this molecule: COc1ccc(/C=N/N=C(\N)NO)c(OC)c1
> 100 µM

====

tested on: KM12 colon; test: NCI tumour cell line growth inhibition, 48 h; in the data active means GI50 below about 0.43 µM; inactive means the rest
Would you mind answering with one of these outcomes? label 1 = active, label 0 = inactive

# example entries with known answers
O=C(NN1C(=O)CSC12CCCC2)c1[nH]c2ccc(Br)cc2c1-c1ccccc1 : label 0
C[CH2][Sn]([CH2]C)([O]C(=O)C(OC(C)=O)c1ccccc1)[O]C(=O)C(OC(C)=O)c1ccccc1 (stereo not given) : label 0
CCc1ccc(NC(=O)COC(=O)c2cc([N+](=O)[O-])ccc2Sc2nnnn2C)cc1 : label 0

We next turn to a different compound, shown below.
In this assay, the call recorded for CCCCN(CCCC)c1ccc(C(=N)c2ccc(N(CCCC)CCCC)cc2)cc1 was what?
label 1
